For each record, write down the corresponding EC50 hGLP-1R (cAMP).
# tested-target: human GLP-1 receptor (human, UniProt P43220 24-463)
# assay-text: cell-based or functional assay
Numbered stars: 1 amine (or outer) side, 2 acyl side, 3 side chain; on linkers, the order of the positions; unused ones are H or OH. Square brackets hold non-standard residues; d marks the D form. Side chains are listed from the residue outwards. Ends that are not written are not given here. γGlu = O=C(O)[C@H](CCC(=O)[*:2])N[*:1]; x53 = not defined here; Aib = CC(C)(N)C(=O)O

Query: Bench note: what EC50 hGLP-1R (cAMP) did HXQGTFTSDLSKQKDSRRAQDFIEWLKAGGPSSGAPPPS (dSer at 2; K(γE-x53) at 14; C-terminal NH2) [SEQ ID NO: 74] show?
Reply: 4.2 pM

Query: I am curious: what EC50 hGLP-1R (cAMP) value has been reported for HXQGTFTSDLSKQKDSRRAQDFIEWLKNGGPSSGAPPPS (dSer at 2; K(γE-x53) at 14; C-terminal NH(tert.butyl)) [SEQ ID NO: 100] ?
Reply: 13.5 pM

Query: For HXQGTFTSDLSKQKESKAAQDFIEWLKAGGPSSGAPPPS (dSer at 2; K(GABA-x53) at 14; C-terminal NH2) [SEQ ID NO: 7] , what is its reported EC50 hGLP-1R (cAMP)?
Reply: 3.5 pM

Query: EC50 hGLP-1R (cAMP); subject: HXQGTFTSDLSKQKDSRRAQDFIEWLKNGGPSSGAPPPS (dSer at 2; K(γE-x53) at 14; C-terminal NH[(CH2)17-CH3]) [SEQ ID NO: 109]
Reply: 430 pM

Query: What value of measured EC50 hGLP-1R (cAMP) is listed for H[Aib]QGTFTSDLSKQK([γGlu-γGlu-x53])DEQRAKEFIEWLKSGGPSSGAPPPS-NH2 (reading uncertain) [SEQ ID NO: 207] ?
Reply: 1.1 pM

Query: # get_value(readout='EC50 hGLP-1R (cAMP)', item= HXQGTFTSDLSKQKESRAAXLFIEWLKNGGPSSGAPPPS (dSer at 2; K(x53) at 14; Aib at 20; C-terminal NH2) [SEQ ID NO: 122] )
Reply: 24.9 pM

Query: Data request, read-out EC50 hGLP-1R (cAMP), for HXQGTFTSDLSKQKESEAAQDFIEWLKAGGPSSGAPPPS (dSer at 2; K(γE-x53) at 14; C-terminal NH2) [SEQ ID NO: 20]
Reply: 3.8 pM

Query: # get_value(readout='EC50 hGLP-1R (cAMP)', item= HXQGTFTSDLSKQKESRAAQEFIEWLKAGGPSSGAPPPS (dSer at 2; K(γE-x53) at 14; C-terminal NH2) [SEQ ID NO: 47] )
Reply: 2.2 pM

Query: Which EC50 hGLP-1R (cAMP) is reported for this binder? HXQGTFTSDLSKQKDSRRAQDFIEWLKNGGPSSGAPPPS (dSer at 2; K(γE-x53) at 14; C-terminal NH(CH2-CF3)) [SEQ ID NO: 103]
Reply: 10.1 pM

Query: Give the measured EC50 hGLP-1R (cAMP) of HXQGTFTSDLSKQKESQAAQEFIEWLKAGGPSSGAPPPS (dSer at 2; K(γE-x53) at 14; C-terminal NH2) [SEQ ID NO: 37] .
Reply: 1.5 pM

Query: Value lookup for EC50 hGLP-1R (cAMP); key = HXQGTFTSDLSKQKESXAAQLFIEWLKAGGPSSGAPPPS (dSer at 2; K(GABA-x70) at 14; Aib at 17; C-terminal NH2) [SEQ ID NO: 131]
Reply: 9.1 pM

Query: Return reported EC50 hGLP-1R (cAMP); argument: HXQGTFTSDLSKQKESKAAQLFIEWLKAGGPSSGAPPPS (dSer at 2; K(γE-x70) at 14; C-terminal NH2) [SEQ ID NO: 27]
Reply: 7.7 pM
